Target: PADI4, Q9UM07
Sequence (Q9UM07 whole entry): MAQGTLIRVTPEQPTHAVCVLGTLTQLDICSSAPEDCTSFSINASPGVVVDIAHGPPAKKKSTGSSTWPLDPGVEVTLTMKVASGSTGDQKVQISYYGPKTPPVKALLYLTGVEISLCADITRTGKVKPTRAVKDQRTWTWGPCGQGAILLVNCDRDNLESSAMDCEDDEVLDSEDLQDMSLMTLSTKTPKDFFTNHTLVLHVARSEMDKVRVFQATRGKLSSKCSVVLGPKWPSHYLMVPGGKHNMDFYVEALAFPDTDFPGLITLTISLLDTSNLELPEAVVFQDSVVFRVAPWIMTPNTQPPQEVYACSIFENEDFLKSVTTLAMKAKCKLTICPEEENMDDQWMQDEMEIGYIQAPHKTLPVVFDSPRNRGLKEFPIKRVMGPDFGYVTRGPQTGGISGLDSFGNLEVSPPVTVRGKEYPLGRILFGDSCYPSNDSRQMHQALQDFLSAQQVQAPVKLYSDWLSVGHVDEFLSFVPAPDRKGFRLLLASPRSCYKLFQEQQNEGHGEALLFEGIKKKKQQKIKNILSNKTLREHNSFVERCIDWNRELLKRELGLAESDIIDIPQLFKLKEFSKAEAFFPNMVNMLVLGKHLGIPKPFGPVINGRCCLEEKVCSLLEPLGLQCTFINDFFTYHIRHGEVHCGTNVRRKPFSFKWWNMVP
Experiment: log2 enrichment score relative to parent PADI4_3 peptide (binding to PADI4); higher = tighter binding than parent
Conditions: CaCl2: 10 mM
Answer False if log2 enrichment score is under -3, and True if it is -3 or more.

Query: Is the recorded value of log2 enrichment score equal to or greater than -3 for this binder? YRDPHYRHPKYCG [PADI4_3_H4P H4P]
Result: True

Query: Check if log2 enrichment score >= -3 (inclusive). Item: YRDHHQRHPKYCG [PADI4_3_Y6Q Y6Q]
Result: True

Query: Does the binder YRCHHYRHPKYCG [PADI4_3_D3C D3C] have recorded log2 enrichment score that is -3 or more?
Result: False

Query: Is it the case that YRDHHYRHPKSCG [PADI4_3_Y11S Y11S] has log2 enrichment score reaching or exceeding -3?
Result: False

Query: Test whether the binder YRDHDYRHPKYCG [PADI4_3_H5D H5D] records log2 enrichment score of -3 or higher.
Result: False

Query: Is log2 enrichment score at least -3? Consider YRDHHYRHPKRCG [PADI4_3_Y11R Y11R]
Result: False

Query: Kindly determine if log2 enrichment score recorded for YRDHHTRHPKYCG [PADI4_3_Y6T Y6T] is above or exactly -3.
Result: True

Query: Determine whether this binder has log2 enrichment score no lower than -3: YRDHHYRHPKYCG [PADI4_3_Y11Y Y11Y]
Result: True

Query: Could you verify whether the entry YRDHHYRHPDYCG [PADI4_3_K10D K10D] shows log2 enrichment score of no less than -3?
Result: True

Query: Say whether YRDHHYRPPKYCG [PADI4_3_H8P H8P] shows log2 enrichment score of -3 or more.
Result: False

Query: Assess whether reported log2 enrichment score for YRDHHYRHPEYCG [PADI4_3_K10E K10E] sits at -3 or higher.
Result: True

Query: For this binder, is measured log2 enrichment score -3 or higher? YRDHHYYHPKYCG [PADI4_3_R7Y R7Y]
Result: True

Query: Would you say YRDQHYRHPKYCG [PADI4_3_H4Q H4Q] shows log2 enrichment score at minimum -3?
Result: True

Query: Check this binder for log2 enrichment score at or above -3: YRDHHYRHPKYCG [PADI4_3_H5H H5H]
Result: True

Query: Is log2 enrichment score at least -3? Consider YRDHHYRHPKECG [PADI4_3_Y11E Y11E]
Result: False
